Tested on: SARS-CoV-2 Alpha variant (hCoV-19/Japan/QK002/2020)
PROTOCOL_DETAILS: Antiviral activity assay in Vero E6 cells, qRT-PCR of supernatant
Assay type: cell-based
MEASUREMENT_CONTEXT: Severe acute respiratory syndrome coronavirus 2, Vero C1008, compound concentration (for 5-ALA/SFC the 5-ALA concentration, ratio 4:1)

SUBSTANCE_SMILES | UOM | IC50
NCC(=O)CCC(=O)O | µM | 104

====

Tested on: SARS-CoV-2 Delta variant (hCoV-19/Japan/TY11-330-P1//2021)
PROTOCOL_DETAILS: Antiviral activity assay in Vero E6 cells, qRT-PCR of supernatant
Type: cell-based
MEASUREMENT_CONTEXT: Severe acute respiratory syndrome coronavirus 2, Vero C1008; Delta; […]; compound concentration (for 5-ALA/SFC the 5-ALA concentration, ratio 4:1)
pIC50: −log10 of the molar value.

SUBSTANCE_SMILES | pIC50
NCC(=O)CCC(=O)O | < 2.70
CCC(CC)COC(=O)[C@H](C)N[P@](=O)(OC[C@H]1O[C@@](C#N)(c2ccc3c(N)ncnn23)[C@H](O)[C@@H]1O)Oc1ccccc1 | 6.00 to 7.00
